Assay text: in vitro
Particulars: human
Measure: viability at 1.1 µM (%)
Answer format: numeric, % implied, no suffix.

Give recorded viability at 1.1 µM. "CC(C)S(=O)(=O)c1ccccc1Nc1nc(Nc2ccc(CC#N)cc2)nc2ccccc12"
99.7

###

Assay text: in vitro
Particulars: human, mcf10a cells
Measure: viability at 1 µM (%)
Give a bare numeral; the unit % is implied.

Provide viability at 1 µM value for the following compound: "CC(C)(C)OC(=O)Nc1cccc(Nc2nc(Nc3ccc(CC#N)cc3)nc3ccccc23)c1"
91.7

Read off the recorded viability at 1 µM for Cc1cc(Nc2nc(N3CC4CC3CN4CC(C)C)nc3ccccc23)n[nH]1 (centres unmarked) [compound 27e]
74.8

Return viability at 1 µM (reported value) for this compound: CC(C)(C)OC(=O)N1CC2C(C1)C2Nc1nc(Nc2cc(C3CC3)[nH]n2)c2ccccc2n1 (centres unmarked)
74.5

Provide measured viability at 1 µM value, entry: "Cc1cc(Cl)ccc1C1=CCN(c2nc(Nc3cc(C4CC4)[nH]n3)c3ccccc3n2)CC1"
15.2

Give the measured viability at 1 µM for "O=C(O)Cc1ccc(Nc2nc(Nc3cc(C4CC4)[nH]n3)c3ccccc3n2)cc1"
113

Note viability at 1 µM for the compound shown: "CC(C)(C)OC(=O)NCCCNC(=O)c1ccc(Nc2nc(Nc3cc(C4CC4)[nH]n3)c3ccccc3n2)cc1"
80

Determine its reported viability at 1 µM: "CC(C)(C)OC(=O)c1ccc(Nc2nc(Nc3cc(C4CC4)[nH]n3)c3ccccc3n2)cc1"
86.8

Consider the compound "NCCNC(=O)c1ccc(Nc2nc(Nc3cc(C4CC4)[nH]n3)c3ccccc3n2)cc1" and give its recorded viability at 1 µM.
111
